- Tested on: Desulfovibrio piger
- method_notes: Antimicrobial activity against Desulfovibrio piger by Wadsworth agar dilution method
- Assay type: functional
parameter: MIC50 (µg/mL)
Answer with a number only, understood to be in µg/mL.

Below, each entry is followed by its recorded MIC50 result.
# molecule, value_observed
rows = [
    ("NC[C@@H]1O[C@H](O[C@H]2[C@@H](O)[C@H](O[C@@H]3[C@@H](O)[C@H](N)C[C@H](N)[C@H]3O[C@H]3O[C@H](CN)[C@@H](O)[C@H](O)[C@H]3N)O[C@@H]2CO)[C@H](N)[C@@H](O)[C@@H]1O", 256),
    ("CO[C@H]1/C=C/O[C@@]2(C)Oc3c(C)c(O)c4c(O)c(c5c(nc6cc(C)ccn65)c4c3C2=O)NC(=O)/C(C)=C\\C=C\\[C@H](C)[C@H](O)[C@@H](C)[C@@H](O)[C@@H](C)[C@H](OC(C)=O)[C@@H]1C", 16),
]

Input: Please state recorded MIC50 (tested on Desulfovibrio piger) of CC(=O)Oc1ccccc1C(=O)Nc1ncc([N+](=O)[O-])s1 [NITAZOXANIDE]
Output: 1

Source listed as ChEMBL document CHEMBL1275577.
